Test system: Danio rerio Tg(wt1b:EGFP) embryo, pronephros
Experiment: glomerular width (mean of left and right), fold change vs DMSO control; higher = wider glomerulus
Conditions: 25 µM; exposure: 24-48 hpf
Counter-ions that a name gives are not always drawn.
glomerular width listing for selected compounds.
measurement_label: glomerular width

[
  {
    "compound": "CNC(=O)Oc1ccc2c(c1)[C@]1(C)CCN(C)[C@@H]1N2C [Eserine hemisulfate salt]",
    "reported": 1
  },
  {
    "compound": "CN1[C@@H]2C[C@@H](OC(=O)[C@H](CO)c3ccccc3)C[C@H]1[C@@H]1O[C@@H]12 [Scopolamine hydrochloride]",
    "reported": 1.09
  },
  {
    "compound": "CC(C)c1c(CN(C)C(C)Cc2ccccc2)n(C)n(-c2ccccc2)c1=O (centres undefined)",
    "reported": 0.985
  },
  {
    "compound": "O=c1[nH]c2ccccc2n1C1CCN(CCCC(c2ccc(F)cc2)c2ccc(F)cc2)CC1 [Pimozide]",
    "reported": 0.673
  }
]
